- protocol-text: Biodistribution in BALB/c mice
- Type: in vivo
- details: female, BALB/c, mouse, heart, iv, 30 MBq, total radioactivity; 10 min p.i.; read-out: uptake in heart
- Description: Metabolic biodistribution studies were performed in accordance with the ethical standards of the institution and approved by the Austrian Ministry of Science (BMWFW-66.011/0072-V/3b/2019). […] Urine was measured with the low-sensitivity loop of the radiodetector. The remaining samples were analyzed with the high-sensitivity loop due to the lower radioactivity present in blood, liver and kidney homogenate. […]
Where a SMILES comes first, the peptide text is derived from it. [ ]: non-standard residue; d: D form. The star is where a group is joined. DOTA = O=C(O)CN1CCN(CC(=O)O)CCN(CC(=O)*)CCN(CC(=O)O)CC1; 1Nal = N[C@@H](Cc1cccc2ccccc12)C(=O)O; NMeNle = CCCC[C@H](NC)C(=O)O
attribute-measured: tissue uptake at 10 min (%ID/g)

# molecule, reported
rows = [
    ("CCCC[C@@H](C(=O)N[C@@H](CC(=O)O)C(=O)N[C@@H](Cc1cccc2ccccc12)C(N)=O)N(C)C(=O)[C@H](Cc1c[nH]c2ccccc12)NC(=O)CNC(=O)[C@H](Cc1ccc(O)cc1)NC(=O)[C@@H]1CCCN1C(=O)[C@@H](CCC(=O)O)NC(=O)CN1CCN(CC(=O)O)CCN(CC(=O)O)CCN(CC(=O)O)CC1 [[^177Lu]Lu-1, metal not drawn] ({DOTA}-[dE]PYGW[NMeNle]D[1Nal]-NH2)", 7.13),
]

---

- protocol-text: Protein binding in human serum by size exclusion chromatography
- Type: in vitro ADME
- details: 24 h incubation
- Description: For protein binding assessment, the radiolabeled DOTA-peptides were incubated in fresh human serum at 37 °C (500 pmol/mL, n = 2). After 1, 4 and 24 h of incubation, two samples were taken for each time point and analyzed by Sephadex G-50 size-exclusion chromatography (GE Healthcare Illustra, Little Chalfont, UK). The percentage of protein binding was determined by measuring the column and the eluate with the gamma-counter.
Where a SMILES comes first, the peptide text is derived from it. [ ]: non-standard residue; d: D form. The star is where a group is joined. DOTA = O=C(O)CN1CCN(CC(=O)O)CCN(CC(=O)*)CCN(CC(=O)O)CC1; 1Nal = N[C@@H](Cc1cccc2ccccc12)C(=O)O; NMeNle = CCCC[C@H](NC)C(=O)O
# fraction unbound annotations

# molecule, fraction unbound
records = [
    ("CCCC[C@@H](C(=O)N[C@@H](CC(=O)O)C(=O)O)N(C)C(=O)[C@H](Cc1c[nH]c2ccccc12)NC(=O)CNC(=O)[C@H](Cc1ccc(O)cc1)NC(=O)[C@@H]1CCCN1C(=O)[C@@H](CCC(=O)O)NC(=O)CN1CCN(CC(=O)O)CCN(CC(=O)O)CCN(CC(=O)O)CC1 [[^177Lu]Lu-M2, metal not drawn] ({DOTA}-[dE]PYGW[NMeNle]D-OH; C-terminus assumed)", 0.519),
    ("CCCC[C@@H](C(=O)N[C@@H](CC(=O)O)C(=O)N[C@@H](Cc1cccc2ccccc12)C(=O)O)N(C)C(=O)[C@H](Cc1c[nH]c2ccccc12)NC(=O)CNC(=O)[C@H](Cc1ccc(O)cc1)NC(=O)[C@@H]1CCCN1C(=O)[C@@H](CCC(=O)O)NC(=O)CN1CCN(CC(=O)O)CCN(CC(=O)O)CCN(CC(=O)O)CC1 [[^177Lu]Lu-M1, metal not drawn] ({DOTA}-[dE]PYGW[NMeNle]D[1Nal]-OH)", 0.546),
    ("CCCC[C@@H](C(=O)N[C@@H](CC(=O)O)C(=O)N[C@@H](Cc1cccc2ccccc12)C(N)=O)N(C)C(=O)[C@H](Cc1c[nH]c2ccccc12)NC(=O)CNC(=O)[C@H](Cc1ccc(O)cc1)NC(=O)[C@@H]1CCCN1C(=O)[C@@H](CCC(=O)O)NC(=O)CN1CCN(CC(=O)O)CCN(CC(=O)O)CCN(CC(=O)O)CC1 [[^177Lu]Lu-1, metal not drawn] ({DOTA}-[dE]PYGW[NMeNle]D[1Nal]-NH2)", 0.622),
    ("CCCC[C@@H](C(=O)O)N(C)C(=O)[C@H](Cc1c[nH]c2ccccc12)NC(=O)CNC(=O)[C@H](Cc1ccc(O)cc1)NC(=O)[C@@H]1CCCN1C(=O)[C@@H](CCC(=O)O)NC(=O)CN1CCN(CC(=O)O)CCN(CC(=O)O)CCN(CC(=O)O)CC1 [[^177Lu]Lu-M3, metal not drawn] ({DOTA}-[dE]PYGW[NMeNle]-OH; C-terminus assumed)", 0.766),
]

---

Protein target, amino acids: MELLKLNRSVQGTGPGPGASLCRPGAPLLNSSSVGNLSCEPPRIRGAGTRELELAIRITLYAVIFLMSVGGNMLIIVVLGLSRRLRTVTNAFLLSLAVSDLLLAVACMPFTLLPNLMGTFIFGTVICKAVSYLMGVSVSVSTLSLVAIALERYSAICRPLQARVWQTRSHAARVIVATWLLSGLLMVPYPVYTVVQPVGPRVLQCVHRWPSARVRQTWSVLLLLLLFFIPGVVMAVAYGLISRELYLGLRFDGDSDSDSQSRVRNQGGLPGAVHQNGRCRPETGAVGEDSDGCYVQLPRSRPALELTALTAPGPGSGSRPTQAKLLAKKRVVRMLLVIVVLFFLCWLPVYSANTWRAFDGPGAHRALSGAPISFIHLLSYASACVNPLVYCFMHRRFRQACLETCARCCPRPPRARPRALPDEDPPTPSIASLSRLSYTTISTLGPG
pIC50: −log10 of the molar value. Where a SMILES comes first, the peptide text is derived from it. [ ]: non-standard residue; d: D form. The star is where a group is joined. DOTA = O=C(O)CN1CCN(CC(=O)O)CCN(CC(=O)*)CCN(CC(=O)O)CC1; 1Nal = N[C@@H](Cc1cccc2ccccc12)C(=O)O; NMeNle = CCCC[C@H](NC)C(=O)O
Below, each entry is listed alongside its reported pIC50.
attribute-measured: pIC50

# compound, reported
measured = [
    ("O=C(O)CC[C@@H](NC(=O)CN1CCN(CC(=O)O)CCN(CC(=O)O)CCN(CC(=O)O)CC1)C(=O)N1CCC[C@H]1C(=O)N[C@@H](Cc1ccc(O)cc1)C(=O)NCC(=O)N[C@@H](Cc1c[nH]c2ccccc12)C(=O)O [M4, DOTA-DGlu-Pro-Tyr-Gly-Trp] ({DOTA}-[dE]PYGW-OH; C-terminus assumed)", "< 6.00"),
    ("CCCC[C@@H](C(=O)N[C@@H](CC(=O)O)C(=O)N[C@@H](Cc1cccc2ccccc12)C(=O)O)N(C)C(=O)[C@H](Cc1c[nH]c2ccccc12)NC(=O)CNC(=O)[C@H](Cc1ccc(O)cc1)NC(=O)[C@@H]1CCCN1C(=O)[C@@H](CCC(=O)O)NC(=O)CN1CCN(CC(=O)O)CCN(CC(=O)O)CCN(CC(=O)O)CC1 [M1] ({DOTA}-[dE]PYGW[NMeNle]D[1Nal]-OH)", "< 6.00"),
    ("CCCC[C@@H](C(=O)N[C@@H](CC(=O)O)C(=O)N[C@@H](Cc1cccc2ccccc12)C(N)=O)N(C)C(=O)[C@H](Cc1c[nH]c2ccccc12)NC(=O)CNC(=O)[C@H](Cc1ccc(O)cc1)NC(=O)[C@@H]1CCCN1C(=O)[C@@H](CCC(=O)O)NC(=O)CN1CCN(CC(=O)O)CCN(CC(=O)O)CCN(CC(=O)O)CC1 [compound 1] ({DOTA}-[dE]PYGW[NMeNle]D[1Nal]-NH2)", 9.16),
    ("CCCC[C@@H](C(=O)N[C@@H](CC(=O)O)C(=O)O)N(C)C(=O)[C@H](Cc1c[nH]c2ccccc12)NC(=O)CNC(=O)[C@H](Cc1ccc(O)cc1)NC(=O)[C@@H]1CCCN1C(=O)[C@@H](CCC(=O)O)NC(=O)CN1CCN(CC(=O)O)CCN(CC(=O)O)CCN(CC(=O)O)CC1 [M2, DOTA-DGlu-Pro-Tyr-Gly-Trp-(N-Me)Nle-Asp] ({DOTA}-[dE]PYGW[NMeNle]D-OH; C-terminus assumed)", "< 6.00"),
    ("CCCC[C@@H](C(=O)O)N(C)C(=O)[C@H](Cc1c[nH]c2ccccc12)NC(=O)CNC(=O)[C@H](Cc1ccc(O)cc1)NC(=O)[C@@H]1CCCN1C(=O)[C@@H](CCC(=O)O)NC(=O)CN1CCN(CC(=O)O)CCN(CC(=O)O)CCN(CC(=O)O)CC1 [M3, DOTA-DGlu-Pro-Tyr-Gly-Trp-(N-Me)Nle] ({DOTA}-[dE]PYGW[NMeNle]-OH; C-terminus assumed)", "< 6.00"),
]

---

- protocol-text: Biodistribution in BALB/c mice
- Type: in vivo
- details: female, BALB/c, mouse, heart, iv, 30 MBq, total radioactivity; 30 min p.i.; read-out: uptake in heart
Where a SMILES comes first, the peptide text is derived from it. [ ]: non-standard residue; d: D form. The star is where a group is joined. DOTA = O=C(O)CN1CCN(CC(=O)O)CCN(CC(=O)*)CCN(CC(=O)O)CC1; 1Nal = N[C@@H](Cc1cccc2ccccc12)C(=O)O; NMeNle = CCCC[C@H](NC)C(=O)O

# molecule, tissue uptake at 0.5 h
rows = [
    ("CCCC[C@@H](C(=O)N[C@@H](CC(=O)O)C(=O)N[C@@H](Cc1cccc2ccccc12)C(N)=O)N(C)C(=O)[C@H](Cc1c[nH]c2ccccc12)NC(=O)CNC(=O)[C@H](Cc1ccc(O)cc1)NC(=O)[C@@H]1CCCN1C(=O)[C@@H](CCC(=O)O)NC(=O)CN1CCN(CC(=O)O)CCN(CC(=O)O)CCN(CC(=O)O)CC1 [[^177Lu]Lu-1, metal not drawn] ({DOTA}-[dE]PYGW[NMeNle]D[1Nal]-NH2)", "2.72 %ID/g"),
]
